Data origin, for the record: paper PMC6928678

test system: MRSA43300; experiment: microbe, parasite or virus in culture; type: cell-based, Methicillin-resistant Staphylococcus aureus; conditions: 20 h
Where a SMILES comes first, the peptide text is derived from it. [ ]: non-standard residue; d: D form. Orn = NCCC[C@H](N)C(=O)O

# compound, MIC
data = [
    ("CC[C@H](C)[C@@H]1NC(=O)[C@H](CCCNC(=N)N)NC(=O)[C@H]([C@@H](C)CC)NC(=O)[C@@H]2CCCN2C(=O)[C@H](CCCNC(=N)N)NC(=O)[C@H]([C@@H](C)CC)NC(=O)[C@H](CCCNC(=N)N)NC(=O)[C@H]([C@@H](C)CC)NC(=O)[C@H](CCCNC(=N)N)NC(=O)[C@H]([C@@H](C)CC)NC(=O)[C@@H]2CCCN2C(=O)[C@H](CCCNC(=N)N)NC(=O)[C@H]([C@@H](C)CC)NC(=O)[C@H](CCCNC(=N)N)NC1=O [OIR3] (cyclo(IRIRIRPIRIRIRP))", "4 µM"),
    ("CC[C@H](C)[C@H](N)C(=O)N[C@@H](CCCNC(=N)N)C(=O)N[C@H](C(=O)N[C@@H](CCCNC(=N)N)C(=O)N1CCC[C@@H]1C(=O)N[C@H](C(=O)N[C@@H](CCCNC(=N)N)C(=O)N[C@H](C(=O)N[C@@H](CCCNC(=N)N)C(=O)N1CCC[C@@H]1C(=O)O)[C@@H](C)CC)[C@@H](C)CC)[C@@H](C)CC [DIR2] (H-IRIR[dP]IRIR[dP]-OH)", ">128 µM"),
    ("CC(C)C[C@@H]1NC(=O)[C@H](CCCN)NC(=O)[C@H](C(C)C)NC(=O)[C@@H]2CCCN2C(=O)[C@@H](Cc2ccccc2)NC(=O)[C@H](CC(C)C)NC(=O)[C@H](CCCN)NC(=O)[C@H](C(C)C)NC(=O)[C@@H]2CCCN2C(=O)[C@@H](Cc2ccccc2)NC1=O [GS, gramicidin S, reference compound] (cyclo(V[Orn]L[dF]PV[Orn]L[dF]P))", "2 µM"),
]

* * *

test system: S. typhimurium 14028; test: microbe, parasite or virus in culture; format: cell-based; settings: 14028, 20 h
Where a SMILES comes first, the peptide text is derived from it. [ ]: non-standard residue; d: D form. Orn = NCCC[C@H](N)C(=O)O
Listing of recorded MIC by entry.

# compound, MIC
records = [
    ("CC(C)C[C@@H]1NC(=O)[C@H](CCCN)NC(=O)[C@H](C(C)C)NC(=O)[C@@H]2CCCN2C(=O)[C@@H](Cc2ccccc2)NC(=O)[C@H](CC(C)C)NC(=O)[C@H](CCCN)NC(=O)[C@H](C(C)C)NC(=O)[C@@H]2CCCN2C(=O)[C@@H](Cc2ccccc2)NC1=O [GS, gramicidin S, reference compound] (cyclo(V[Orn]L[dF]PV[Orn]L[dF]P))", "16 µM"),
    ("CC[C@H](C)[C@@H]1NC(=O)[C@H](CCCNC(=N)N)NC(=O)[C@H]([C@@H](C)CC)NC(=O)[C@@H]2CCCN2C(=O)[C@H](CCCNC(=N)N)NC(=O)[C@H]([C@@H](C)CC)NC(=O)[C@H](CCCNC(=N)N)NC(=O)[C@H]([C@@H](C)CC)NC(=O)[C@H](CCCNC(=N)N)NC(=O)[C@H]([C@@H](C)CC)NC(=O)[C@@H]2CCCN2C(=O)[C@H](CCCNC(=N)N)NC(=O)[C@H]([C@@H](C)CC)NC(=O)[C@H](CCCNC(=N)N)NC1=O [OIR3] (cyclo(IRIRIRPIRIRIRP))", "4 µM"),
    ("CC[C@H](C)[C@@H]1NC(=O)[C@H](CCCNC(=N)N)NC(=O)[C@H]([C@@H](C)CC)NC(=O)[C@@H]2CCCN2C(=O)[C@H](CCCNC(=N)N)NC(=O)[C@H]([C@@H](C)CC)NC(=O)[C@H](CCCNC(=N)N)NC(=O)[C@H]([C@@H](C)CC)NC(=O)[C@@H]2CCCN2C(=O)[C@H](CCCNC(=N)N)NC1=O [OIR2] (cyclo(IRIRPIRIRP))", ">128 µM"),
    ("CC[C@H](C)[C@H](N)C(=O)N[C@@H](CCCNC(=N)N)C(=O)N[C@H](C(=O)N[C@@H](CCCNC(=N)N)C(=O)N1CCC[C@@H]1C(=O)N[C@H](C(=O)N[C@@H](CCCNC(=N)N)C(=O)N[C@H](C(=O)N[C@@H](CCCNC(=N)N)C(=O)N1CCC[C@@H]1C(=O)O)[C@@H](C)CC)[C@@H](C)CC)[C@@H](C)CC [DIR2] (H-IRIR[dP]IRIR[dP]-OH)", ">128 µM"),
    ("CC[C@H](C)[C@@H]1NC(=O)[C@@H]2CCCN2C(=O)[C@H](CCCNC(=N)N)NC(=O)[C@H]([C@@H](C)CC)NC(=O)[C@@H]2CCCN2C(=O)[C@H](CCCNC(=N)N)NC1=O [OIR1] (cyclo(IRPIRP))", ">128 µM"),
    ("CC[C@H](C)[C@H](N)C(=O)N[C@@H](CCCNC(=N)N)C(=O)N1CCC[C@@H]1C(=O)N[C@H](C(=O)N[C@@H](CCCNC(=N)N)C(=O)N1CCC[C@@H]1C(=O)O)[C@@H](C)CC [DIR1] (H-IR[dP]IR[dP]-OH)", ">128 µM"),
    ("CC[C@H](C)[C@H](N)C(=O)N[C@@H](CCCNC(=N)N)C(=O)N[C@H](C(=O)N[C@@H](CCCNC(=N)N)C(=O)N[C@H](C(=O)N[C@@H](CCCNC(=N)N)C(=O)N1CCC[C@@H]1C(=O)N[C@H](C(=O)N[C@@H](CCCNC(=N)N)C(=O)N[C@H](C(=O)N[C@@H](CCCNC(=N)N)C(=O)N[C@H](C(=O)N[C@@H](CCCNC(=N)N)C(=O)N1CCC[C@@H]1C(=O)O)[C@@H](C)CC)[C@@H](C)CC)[C@@H](C)CC)[C@@H](C)CC)[C@@H](C)CC [DIR3] (H-IRIRIR[dP]IRIRIR[dP]-OH)", "16 µM"),
]
